Measured MIC90, listed per entry for reference.
- Test system: Mycobacterium tuberculosis
- procedure.details: Antimicrobial activity against replicating Mycobacterium tuberculosis after 8 days by micro plate alamar blue assay
- Type: functional
- setup.conditions: 192 h

| chemical.structure | MIC90 |
| --- | --- |
| CO[C@H]1/C=C/O[C@@]2(C)Oc3c(C)c(N)c4c(c3C2=O)C(=O)C=C(NC(=O)/C(C)=C\C=C\[C@H](C)[C@H](O)[C@@H](C)[C@@H](O)[C@@H](C)[C@H](OC(C)=O)[C@@H]1C)C4=O | 1.41 µM |
| CO[C@H]1/C=C/O[C@@]2(C)Oc3c(C)c(O)c4c(c3C2=O)C(=O)C=C(NC(=O)/C(C)=C\C=C\[C@H](C)[C@H](O)[C@@H](C)[C@@H](O)[C@@H](C)[C@H](OC(C)=O)[C@@H]1C)C4=O | 0.03 µM |
| CCNc1c(C)c2c3c4c(O)c(/C=N/N5CCN(C)CC5)c(c(O)c14)NC(=O)/C(C)=C\C=C\[C@H](C)[C@H](O)[C@@H](C)[C@@H](O)[C@@H](C)[C@H](OC(C)=O)[C@H](C)[C@@H](OC)/C=C/O[C@@](C)(O2)C3=O | > 4.7 µM |
| CCNc1c(C)c2c3c4c1C(=O)C(=C(/C=N/N1CCN(C)CC1)C4=O)NC(=O)/C(C)=C\C=C\[C@H](C)[C@H](O)[C@@H](C)[C@@H](O)[C@@H](C)[C@H](OC(C)=O)[C@H](C)[C@@H](OC)/C=C/O[C@@](C)(O2)C3=O | > 4.7 µM |
| NNC(=O)c1ccncc1 | 0.39 µM |
| CO[C@H]1/C=C/O[C@@]2(C)Oc3c(C)c(O)c4c(c3C2=O)C(=O)C(/C=N/N2CCN(C)CC2)=C(NC(=O)/C(C)=C\C=C\[C@H](C)[C@H](O)[C@@H](C)[C@@H](O)[C@@H](C)[C@H](OC(C)=O)[C@@H]1C)C4=O | 0.07 µM |
| C/C=C/Nc1c(C)c2c3c4c1C(=O)C(=C(/C=N/N1CCN(C)CC1)C4=O)NC(=O)/C(C)=C\C=C\[C@H](C)[C@H](O)[C@@H](C)[C@@H](O)[C@@H](C)[C@H](OC(C)=O)[C@H](C)[C@@H](OC)/C=C/O[C@@](C)(O2)C3=O | > 4.7 µM |
| CO[C@H]1/C=C/O[C@@]2(C)Oc3c(C)c(NCCO)c4c(O)c(c(/C=N/N5CCN(C)CC5)c(O)c4c3C2=O)NC(=O)/C(C)=C\C=C\[C@H](C)[C@H](O)[C@@H](C)[C@@H](O)[C@@H](C)[C@H](OC(C)=O)[C@@H]1C | > 4.6 µM |
| COc1c(N2C[C@@H]3CCCN[C@@H]3C2)c(F)cc2c(=O)c(C(=O)O)cn(C3CC3)c12 | 0.64 µM |
| CO[C@H]1/C=C/O[C@@]2(C)Oc3c(C)c(N(C)C)c4c(c3C2=O)C(=O)C=C(NC(=O)/C(C)=C\C=C\[C@H](C)[C@H](O)[C@@H](C)[C@@H](O)[C@@H](C)[C@H](OC(C)=O)[C@@H]1C)C4=O | 1.8 µM |
